Test: Mouse pharmacokinetic study, intravenous dosing
Assay type: in vivo
Conditions: male, C57BL/6, mouse, iv; plasma, 10 mg/kg i.v., time 1 h; read-out: Parent compound concentration following intravenous administration
Property name: concentration at 1 h (ng/mL)
Numbers only, in ng/mL.

// below: answered molecules
| Line notation | Property name | Unit spec | Assay result |
| --- | --- | --- | --- |
| C=C(CC(=O)OCCCCCC)C(=O)OCC(=O)O | concentration at 1 h | ng/mL | 42 |
| C=C(CC(=O)O[C@@H](C)CCCCCC)C(=O)OCc1nn[nH]n1 | concentration at 1 h | ng/mL | 18 |
| C=C(CC(=O)OC1CCCCCCC1)C(=O)OCC(=O)O | concentration at 1 h | ng/mL | 89 |

// for each molecule in input: emit concentration at 1 h
1. C=C(CC(=O)OC1CCCCCCC1)C(=O)OCCC(=O)O
2. C=C(CC(=O)O[C@@H](C)CCCCCC)C(=O)OCC(=O)O

**Result**
1. 69
2. 430

Dear reader, for each entry below, please note its concentration at 1 h.
1. C=C(CC(=O)OC(C)(C)CCCCC)C(=O)OCC(=O)O
2. C=C(CC(=O)O[C@H](C)CCCCCC)C(=O)OCC(=O)O
3. C=C(CC(=O)O[C@@H](CCCCCC)C(F)(F)F)C(=O)OCC(=O)O
4. C=C(CC(=O)OC1C(C)(C)CC1(C)C)C(=O)OCC(=O)O
5. C=C(CC(=O)O[C@@H](C)CCCCCC)C(=O)OCCc1nnn[nH]1
6. C=C(CC(=O)OC(CCCC)CCCC)C(=O)OCC(=O)O
7. C=C(CC(=O)O[C@H](C)CCCCCC)C(=O)OCCC(=O)O
8. C=C(CC(=O)O[C@@H](CC)CCCCC)C(=O)OCC(=O)O

**Result**
[134, 13000, 642, 8.6, 7.7, 181, 2510, 476]

---

Test system: IL-6 cytokine output from THP-1s
Assay: THP-1 AlphaLISA IL-6 cytokine assay
Assay type: cell-based, human
Settings: Homo sapiens; PMA-differentiated THP-1 cells, LPS 24 hr then Nigericin 1 hour
Threshold check on IC50: strictly below 8 µM is Condition met; on or above 8 µM is Condition not met.

| Compound | Group label |
| --- | --- |
| C=C(CC(=O)OCCCCCCCC)C(=O)OCCC(=O)N(CC)CC | Condition met |
| C=C(C(=O)OCCS(C)(=O)=O)C(C)C(=O)OCCCCCCCC (stereo not shown) | Condition met |
| C=C(CC(=O)OCCCOc1ccccc1)C(=O)OCCC(=O)O | Condition not met |
| C=C(CC(=O)OC)C(=O)OCCC#N | Condition met |
| C=C(CC(=O)OCCCCCCCC)C(=O)OC(C)C(=O)N1CCC[C@H]1C(=O)O (stereo partly shown) | Condition met |

**Query** # check: IC50 < 8 µM for `C=C(CC(=O)OC)C(=O)OC1COC1`
**Result** Condition not met

**Query** Problem: For the compound `C=C(CC(=O)O[C@@H](C)CCCCCC)C(=O)OCC(=O)O` , is IC50 under 8 µM?
**Result** Condition not met

**Query** Would you kindly verify if IC50 of `C=C(CC(=O)OC1CCCCC1)C(=O)OC1CCOCC1` is strictly less than 8 µM?
**Result** Condition not met

**Query** Please check: IC50 for C=C(CC(=O)OCCCCCCCC)C(=O)OC(C)COC (stereo not shown) , strictly under 8 µM or not?
**Result** Condition not met

---

Assay: Mouse pharmacokinetic study, intravenous dosing
Type: in vivo
Conditions: male, C57BL/6, mouse, iv; plasma, 10 mg/kg i.v., time 1 h; read-out: Parent compound concentration following intravenous administration
Description: Pharmacokinetic studies were carried out in 6-8-week-old male C57BL/6 mice having free access to food and water. […] For both intravenous and oral routes, the mice were restrained manually at the designated time points, with ca. 110 μL of blood being taken into K2EDTA tubes via the facial vein. Blood samples were put on ice and centrifuged to obtain plasma samples from which the concentration at each time point was measured by LC-MS/MS.
Please provide measured concentration at 1 h for the entries that follow.
Answer format reminder: number followed by unit.

Answered cases to consult:
| Compound | concentration at 1 h |
| --- | --- |
| C=C(CC(=O)O[C@@H](C)CCCCCC)C(=O)OCCC(=O)O | 0.034 µg/mL |
| C=C(CC(=O)O[C@H]1C[C@H]2CC[C@]1(C)C2(C)C)C(=O)OCC(=O)O | 0.013 µg/mL |
| C=C(CC(=O)OC1CCCCCCC1)C(=O)OC(C)c1nnn[nH]1 (centres unmarked) | 0.033 µg/mL |
| C=C(CC(=O)OC12CC3CC(CC(C3)C1)C2)C(=O)OCC(=O)O | 0.075 µg/mL |

Please turn your attention to the following entry.
**Query** Look up and report measured concentration at 1 h for this entry: `C=C(CC(=O)OC1CCCCCCC1)C(=O)OCc1nnn[nH]1`
**Result** 0.074 µg/mL

---

Give measured concentration at 1 h for each item. Keep answers brief.
Assay: Mouse pharmacokinetic study, oral administration
Format: in vivo
Details: male, C57BL/6, mouse, plasma, po, 100 mg/kg, plasma, male C57BL/6 mice, oral gavage 100 mg/kg, 1 h; read-out: Parent compound concentrations following oral administration, Time 1 h
Give bare numbers, in ng/mL.

Answered examples (2):
| Line notation | concentration at 1 h, ng/mL |
| --- | --- |
| C=C(CC(=O)O[C@H](CC)CCCCC)C(=O)OCC(=O)O | 11000 |
| C=C(CC(=O)O[C@@H](C)CCCCCC)C(=O)OCc1nn[nH]n1 | 968 |

Look up concentration at 1 h for the entries below, preserving their order.
1. C=C(CC(=O)OC1CCCCCCC1)C(=O)OCC(=O)O
2. C=C(CC(=O)OC(C)(C)CCCCCC)C(=O)OCC(=O)O
3. C=C(CC(=O)O[C@@H](CCCCCC)C(F)(F)F)C(=O)OCC(=O)O
4. C=C(CC(=O)O[C@@H](C)CCCCCC)C(=O)OCC(=O)O

**Result**
3370
25200
13500
14000

---

I'd appreciate it if you could supply CIint (μL min^−1 10^−6 cells) values for the items below.
Tested on: hepatocytes
Experiment: Hepatocyte stability assay (human)
Assay type: in vitro ADME
Conditions: 10 μM compound, 0.5×10^6 cells/mL, 60 minutes
Give bare numbers, in μL min^−1 10^−6 cells.

| Compound | System | CIint (μL min^−1 10^−6 cells) |
| --- | --- | --- |
| C=C(CC(=O)OC1C(C)(C)CC1(C)C)C(=O)OCC(=O)O [Example 169] | hepatocytes | 5 |

Hi! Can you tell me CIint (μL min^−1 10^−6 cells) for each of these compounds?
1. C=C(CC(=O)OCCCCCCCC)C(=O)OCCC(=O)O [Example 80]
2. C=C(CC(=O)O[C@@H](C)CCCCCC)C(=O)OCC(=O)O [Example 89]
3. C=C(CC(=O)OCCCOc1ccccc1)C(=O)OCCC(=O)O [Example 86]
4. C=C(CC(=O)OCCCCCCCC)C(=O)OCC(=O)O [Example 49]

**Result**
1: 243; 2: 29; 3: 44; 4: 109

Here are 4 compounds. What values of CIint (μL min^−1 10^−6 cells) were reported for them?
1. C=C(CC(=O)O[C@H](C)CCCCCC)C(=O)OCCC(=O)O [Example 88]
2. C=C(CC(=O)OC1CCCCC1)C(=O)OCCC(=O)O [Example 87]
3. C=C(CC(=O)O[C@H](C)CCCCCC)C(=O)OCc1nn[nH]n1 [Example 161]
4. C=C(CC(=O)OC1CCCCCCC1)C(=O)OCc1nnn[nH]1 [Example 134]

**Result**
[134, 11, 55, 27]

For the 8 compounds below, give their CIint (μL min^−1 10^−6 cells) values.
1. C=C(CC(=O)OC1CCCCCCC1)C(=O)OCCC(=O)O [Example 82]
2. C=C(CC(=O)OC1CCCCCCC1)C(=O)OC(C)c1nnn[nH]1 (stereo not shown) [Example 133]
3. C=C(CC(=O)OC1CCCCCCC1)C(=O)OCC(=O)O [Example 90]
4. C=C(CC(=O)O[C@@H](C)CCCCCC)C(=O)OCCc1nnn[nH]1 [Example 129]
5. C=C(CC(=O)O[C@@H](CC)CCCCC)C(=O)OCC(=O)O [Example 170]
6. C=C(CC(=O)OC1CCCCC1)C(=O)OCC(=O)O [Example 91]
7. C=C(CC(=O)O[C@H]1C[C@H]2CC[C@]1(C)C2(C)C)C(=O)OCC(=O)O [Example 179]
8. C=C(CC(=O)OCCCCCCCC)C(=O)O [4-octyl itaconate, 4-Octyl itaconate, reference compound]

**Result**
15
48
8
55
12
4
13
401

The following compounds each have a reported value; give each one's CIint (μL min^−1 10^−6 cells).
1. C=C(CC(=O)O[C@@H](C)CCCCCC)C(=O)OCCC(=O)O [Example 84]
2. C=C(CC(=O)OC(C)(C)CCCCC)C(=O)OCC(=O)O [Example 193]

**Result**
86
16

Hey, just so you know, these numbers are from patent US12390437B2.
